Readings of pKd for the listed binders
# TARGET UNDER TEST: T1, Rb^P T638S (human, UniProt P06400 380-788, T638S)
# T1 construct: also called variant 45
# T1 sequence (looked up): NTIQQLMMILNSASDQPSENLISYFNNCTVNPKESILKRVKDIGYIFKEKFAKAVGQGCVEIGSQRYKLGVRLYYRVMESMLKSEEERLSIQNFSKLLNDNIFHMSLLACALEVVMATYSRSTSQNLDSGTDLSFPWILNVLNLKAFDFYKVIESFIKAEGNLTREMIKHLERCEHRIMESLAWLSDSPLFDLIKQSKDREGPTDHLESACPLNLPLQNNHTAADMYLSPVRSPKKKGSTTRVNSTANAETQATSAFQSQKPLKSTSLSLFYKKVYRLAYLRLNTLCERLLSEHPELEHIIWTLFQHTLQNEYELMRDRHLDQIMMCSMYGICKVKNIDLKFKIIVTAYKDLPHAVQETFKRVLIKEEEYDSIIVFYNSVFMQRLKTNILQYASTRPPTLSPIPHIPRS
# PROTOCOL DESCRIPTION: fluorescence polarisation; 37 °C, after the 25 °C reading ramped over 7 min to 37 °C and 2 min incubation; unlabeled Rb^P against 1.5 nM TMR-E2F1^TD or 7.5 nM TMR-E7^LxCxE; 25 mM Tris pH 8.0, 200 mM NaCl, 1 mM DTT, 0.1% Tween-20; apparent Kd
# CONDITION: both partners purified
No end group written: not given here. TMR = tetramethyl rhodamine dye
Quick note: pKd means taking -log10 of the concentration in moles per liter.

{"columns": ["BINDER", "pKd"],
 "data": [
  ["DLYCYEQLN (also: TMR label, position not given here, source: synthetic peptide, bought: GenScript) [TMR-E7^LxCxE, LxCxE peptide of the E7 oncoprotein from HPV]", 7.85]
]}

Prompt: Data request, read-out pKd, for {TMR}-GEGIRDLFDCDFGDLTPLD (also called E2F^TD; source: synthetic peptide, bought: GenScript) [TMR-E2F1^TD, peptide of the E2F1 transactivation domain]
Response: 7.42
